I'd be grateful if you could share measured SI MV4-11 for these entries.
System: MV-4-11 (human biphenotypic leukaemia)
Assay: In vitro cytotoxicity, MTT assay, MV-4-11
Format: cell-based
Answers are plain numbers.

{"compoundString": "CC[C@@H](C(=O)[C@@H](C)[C@@H](O)[C@H](C)[C@@H]1O[C@@H]([C@@H](CC)C(=O)O)CC[C@@H]1C)[C@H]1O[C@]2(C=C[C@@H](NC(=O)OCCC#N)[C@]3(CC[C@@](C)([C@H]4CC[C@](O)(CC)[C@H](C)O4)O3)O2)[C@H](C)C[C@@H]1C", "targetUnderTest": "MV-4-11 (human biphenotypic leukaemia)", "measure": "SI MV4-11", "endpointResult": 10.9}

State, in one line, measured SI MV4-11 of `CC[C@@H](C(=O)[C@@H](C)[C@@H](O)[C@H](C)[C@@H]1O[C@@H]([C@@H](CC)C(=O)O)CC[C@@H]1C)[C@H]1O[C@]2(C=C[C@@H](NC(=O)OCc3cc(Cl)cc(Cl)c3)[C@]3(CC[C@@](C)([C@H]4CC[C@](O)(CC)[C@H](C)O4)O3)O2)[C@H](C)C[C@@H]1C`
5.3

Values from patent US20240294541A1
